- tgt: NAMPT (Homo sapiens (Human), UniProt P43490)
- Sequence (P43490 whole entry): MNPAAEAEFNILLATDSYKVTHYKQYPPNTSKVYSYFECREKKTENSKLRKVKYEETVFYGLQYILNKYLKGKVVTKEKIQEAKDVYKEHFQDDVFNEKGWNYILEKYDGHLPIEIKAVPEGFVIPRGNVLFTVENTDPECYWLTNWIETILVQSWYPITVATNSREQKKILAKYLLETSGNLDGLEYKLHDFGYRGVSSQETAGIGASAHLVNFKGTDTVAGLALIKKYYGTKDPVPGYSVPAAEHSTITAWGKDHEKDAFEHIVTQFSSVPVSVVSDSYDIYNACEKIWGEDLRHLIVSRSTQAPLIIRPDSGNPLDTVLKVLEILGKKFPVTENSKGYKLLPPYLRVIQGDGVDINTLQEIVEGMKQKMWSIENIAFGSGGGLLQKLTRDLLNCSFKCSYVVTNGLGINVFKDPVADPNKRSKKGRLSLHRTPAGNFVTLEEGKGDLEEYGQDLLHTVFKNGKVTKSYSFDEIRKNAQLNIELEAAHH
- test.method.notes: NAMPT biochemical inhibition assay (NMN quantified by mass spectrometry)
- run.parameters: NAMPT biochemical inhibition; read-out: Biochem IC50
Exercise: for every item that follows, state its recorded IC50.
// unit must come after the numeric part

// below: answered molecules
{"chemical.string": "O=C(NCc1ccc(C(F)(F)F)nc1)Nc1ccc(S(=O)(=O)N2CCCCC2)cc1", "IC50": "189 nM"}
{"chemical.string": "COc1cccc(NS(=O)(=O)c2ccc(NC(=O)NCc3cccnc3)cc2)c1C", "IC50": "2 nM"}
{"chemical.string": "CN(C)c1ccc(CNS(=O)(=O)c2ccc(NC(=O)NCc3cccnc3)cc2)cc1", "IC50": "3 nM"}
{"chemical.string": "O=C(NCc1cccnc1)Nc1ccc(S(=O)(=O)Nc2ccccc2I)cc1", "IC50": "0.8 nM"}
{"chemical.string": "O=C(NCc1cccnc1)Nc1ccc(S(=O)(=O)c2ccc3c(c2)OCO3)cc1", "IC50": "1 nM"}

Below are 4 molecules. Give each one its IC50.
1. O=C(NCc1cccnc1)Nc1ccc(S(=O)(=O)c2ccc(-n3cccn3)cc2F)cc1
2. COc1cc(S(=O)(=O)c2ccc(NC(=O)NCc3cccnc3)cc2)ccc1F
3. Cc1ccccc1S(=O)(=O)c1ccc(NC(=O)NCc2cccnc2)cc1
4. COC[C@@H]1CCCN1S(=O)(=O)c1ccc(NC(=O)NCc2cccnc2)cc1

1. 1 nM
2. 3.7 nM
3. 2 nM
4. 2 nM

Below are 4 molecules. Give each one its IC50.
1. O=C(NCc1cccnc1)Nc1ccc(S(=O)(=O)N2CCC(N3CCCCC3)CC2)cc1
2. O=C(NCc1cccnc1)Nc1ccc(S(=O)(=O)N2CCC(F)(F)CC2)cc1
3. O=C(NCc1cccnc1)Nc1ccc(S(=O)(=O)N2CCN(c3ccccc3)CC2)cc1
4. O=C(NCc1cccnc1)Nc1ccc(S(=O)(=O)c2cc(F)cc(F)c2)cc1

["7 nM", "25 nM", "5 nM", "3 nM"]

----------
- tgt: UniProtKB P43490
- test.method.notes: NAMPT biochemical inhibition assay (NMN quantified by mass spectrometry)
- run.parameters: NAMPT biochemical inhibition; read-out: Biochem IC50
property.label: IC50 (nM)
One number for each entry, in nM.

// below: answered compounds
{"chemical.string": "CC(C)NC(=O)c1cc(S(=O)(=O)c2ccc(NC(=O)NCc3cccnc3)cc2)ccc1F", "tgt": "UniProtKB P43490", "observed.result": 20.9}
{"chemical.string": "CC(C)N(Cc1ccccc1)S(=O)(=O)c1ccc(NC(=O)NCc2cccnc2)cc1", "tgt": "UniProtKB P43490", "observed.result": 2}
{"chemical.string": "O=C(NCc1ccc[n+]([O-])c1)Nc1ccc(S(=O)(=O)c2ccc(Cl)cc2)cc1", "tgt": "UniProtKB P43490", "observed.result": 728}

Below are 5 compounds. Give each one its IC50.
1. O=C(NCc1cccnc1)Nc1ccc(S(=O)(=O)N2CCC(O)(c3cccc(Cl)c3)CC2)cc1
2. O=C(NCc1cccnc1)Nc1ccc(S(=O)(=O)N2CCCC[C@@H]2CN2CCOCC2)cc1
3. COc1ccc(NS(=O)(=O)c2ccc(NC(=O)NCc3cccnc3)cc2)cc1OC
4. Nc1ccc(CNC(=O)Nc2ccc(S(=O)(=O)c3ccc(F)cc3)cc2)cn1
5. COc1ccc(OC)c(NS(=O)(=O)c2ccc(NC(=O)NCc3cccnc3)cc2)c1

[5.2, 51, 5, 2, 1.2]

Below are 5 compounds. Give each one its IC50.
1. O=C(NCc1cccnc1)Nc1ccc(S(=O)(=O)c2cc(Cl)ccc2Cl)cc1
2. O=C(NCc1cccnc1)Nc1ccc(S(=O)(=O)c2ccc(F)cc2Cl)cc1
3. Cc1ccc(C)c(N2CCN(S(=O)(=O)c3ccc(NC(=O)NCc4cccnc4)cc3)CC2)c1
4. COCC1CCN(S(=O)(=O)c2ccc(NC(=O)NCc3cccnc3)cc2)CC1
5. O=C(NCc1cccnc1)Nc1ccc(S(=O)(=O)c2ccc(C(F)(F)F)cc2)cc1

[6, 8, 5, 22, 9]

src = patent US11279687B2
